System: HepG2 liver cancer cells
Experiment: sorafenib dose-effect, AlamarBlue cell proliferation
Format: cell-based
Conditions: Homo sapiens, 72 h, AlamarBlue 3 days post drug treatment, range from two or three experiments
Protocol: FIG. 2 illustrates dose-effect curves of sorafenib in liver cancer cells. Cells were seed in 96-well plate at 2000 cells per well. Three days after seeding the cells, sorafenib in a serial dilution from (0.1-100 μM) was added to the medium. Cell proliferation or percent inhibition was determined by AlamarBlue 3 days post drug treatment. Data were normalized to cells treated with sorafenib solvent (1% DMSO final concentration). […]
MEASUREMENT_NAME: IC50

Tell me measured IC50 for CNC(=O)c1cc(Oc2ccc(NC(=O)Nc3ccc(Cl)c(C(F)(F)F)c3)cc2)ccn1 [Sorafenib] please.
6.7 to 9 µM
